Every entry's value here was drawn from patent US7101872B2.

Tested on: DN
Experiment: Antiproliferative study, glioma cell lines (MTT)
Assay type: cell-based
Settings: Homo sapiens, Oligodendroglioma, 96 hrs
MEASURED QUANTITY: IC50
Answer by giving the amount and then stating its unit.

Data point: CC(C)=CCC/C(C)=C/CC/C(C)=C/CN1C(=O)c2cccc(O)c2Nc2c(O)cc(O)cc21 ; IC50 = 3.26 µM

* * *

System: B16 (F10)
Assay: MTT cell proliferation, tumor cell lines
Format: cell-based
Conditions: Mus musculus, Melanoma, 96 hrs
MEASURED QUANTITY: IC50 (µM)
Answer format: numeric, µM implied, no suffix.

Documented IC50 of CC(C)=CCC/C(C)=C/CC/C(C)=C/CN1C(=O)c2cccc(O)c2Nc2c(O)cc(O)cc21 : 11.4
